- protocol_description: soluble on expression in E. coli; label from the status in PepcDB or PDB records
measured_quantity: soluble on expression in E. coli

In the examples that follow, each entry is paired with its recorded soluble on expression in E. coli.
>  <residue_codes>
MGHHHHHHSHCDSDCLWVGLAGPQILPPCRSIVRTLHQHKLGRASWPSVQQGLQQSFLHTLDSYRILQKAAPFDRRATSLAWHPTHPSTVAVGSKGGDIMLWNFGIKDKPTFIKGIGAGGSITGLKFNPLNTNQFYASSMEGTTRLQDFKGNILRVFASSDTINIWFCSLDVSASSRMVVTGDNVGNVILLNMDGKELWNLRMHKKKVTHVALNPCCDWFLATASVDQTVKIWDLRQVRGKASFLYSLPHRHPVNAACFSPDGARLLTTDQKSEIRVYSASQWDCPLGLIPHPHRHFQHLTPIKAAWHPRYNLIVVGRYPDPNFKSCTPYELRTIDVFDGNSGKMMCQLYDPESSGISSLNEFNPMGDTLASAMGYHILIWSQEEARTRK

>  <soluble on expression in E. coli>
not soluble

$$$$
>  <residue_codes>
MGSDKIHHHHHHMSQDTILLIWDRIGDYHLSRVKACEKLLGAPVFTADLAGTDNLYKWDSIAKTTHTVLSSKPAEQSDIWNRFRTFRRIIKTHSIAVVAMPYGRTEYHIFLLYARLKGIRTIIFSESWYSRGKLKDFLKSLLLKSLGNYFFVSGKRAFDHFTKNYKINPEKIETGYSVVDNNHFQRRLFTEKKYVLTIARYSEEKNLSFLIDSYAKSVISNTYNLMLIGEGPLRPALQSQIDILGLSDRVQLAGWVPYAALPKAYAEAVVFVLPSSFEPWGLVVNEAMSAGLPILVSDACGCMPELVAEGVNGWSFNSNTQQELIERLNAFAALSEKGIEITGKNSMQLIRNYTPDTWAGSIARLAQAGR

>  <soluble on expression in E. coli>
not soluble

$$$$
>  <residue_codes>
MSAYLDWLADMGIDGAHPGGFELTKQILRKLKIDRSTSVLDVGCGTGQTAAYIAEQYGANVTAIDIHPTMIAKAKQRFAAKAVSVRLHRASVEALPFPAGTFDLALSESVLAFVSLPNALAEIRRVLKNDGLFVGIEACHERLTAAEQKQIAAFYGFRQLMTSAEWKEVLEQSGFGCRQFSYAAAAEAPSLGAPIVIALPPTPEMASMWQMHQQLTAQFGDRLGYCVFCCEP

>  <soluble on expression in E. coli>
not soluble

$$$$
>  <residue_codes>
MGHHHHHHSHMTSLMDLTLLLARSQPELIEAHTCERIMCCVAQQASEKIDRFRAHAASVFLTLLHFDSPPIPHVPHRGELEKLFPRSDVASVNWSAPSQAFPRITQLLGLPTYRYHVLLGLVVSLGGLTESTIRHSTQSLFEYMKGIQSDPQALGSFSGTLLQIFEDNLLNERVSVPLLKTLDHVLTHGCFDIFTTEEDHPFSVKLLALCKKEIKNSKDIQKLLSGIAVFCEMVQFPGDVRRQALLQLCLLLCHRFPLIRKTTASQVYETLLTYSDVVGADVLDEVVTVLSDTAWDAELAVVREQRNRLCDLLGVPRPQLVPQPGAC

>  <soluble on expression in E. coli>
not soluble

$$$$
>  <residue_codes>
MGAQYLKRVYLMSVIAETNEALLAKIKALCGDYLREVDTHPGQWDDSSVRRLVRNPPAVYVAWLGQQPNNNPHTVTARWGVFVVAEVLNGQRRNAVGIYQIVETLTAGLHKQRIAPSGMFELQTVQNLWSDTQSGMGVAVYGMYFNAVQPLPDMTSDDTLCDFKIYDHTFNQDKDEHTIDGKTRLTVELPTQSD

>  <soluble on expression in E. coli>
not soluble

$$$$

Hey, quick one: what's soluble on expression in E. coli for each of these?
1. MCSAGGIRRPIQIEEFKTAISGMSDMELAQIKTEIENSINHLQRSNARLGKYIAKLEGADDRLEADDSDDLENIDSGDLALYKDSVRENEIVLNNYNERVDALEQETVYRKTGHGKSKHEVEAKDNTNKGPDVDMDNSNVDVVTPNSIFI
2. MGSRSSHAAVIPDGDSIRRETGFSQASLLRLHHRFRALDRNKKGYLSRMDLQQIGALAVNPLGDRIIESFFPDGSQRVDFPGFVRVLAHFRPVEDEDTETQDPKKPEPLNSRRNKLHYAFQLYDLDRDGKISRHEMLQVLRLMVGVQVTEEQLENIADRTVQEADEDGDGAVSFVEFTKSLEKMDVEQKMSIRILKHHHHHH
3. EYLDGFEAFTDQYKIKFQEFLDRFGIYYQPSTNKNAELFKVADSDIPSAEVKAYYVKEEWYFTPTNSDVDIKIQAICPIMTGQDEFGEVRNQPLFWIPYENIRPYIARERVMLSSLNNTRNSTIDDFFRLNLYKGDIVKTENLHNRALAEYCPTPDSMKMESKRIDKELQGFRDGLFVTQDTTWMKQAETKKSKGKKLEKARGKNITSRTRGQGEGAAETEAVEPKKQKASKNKAATRSVRRRK
4. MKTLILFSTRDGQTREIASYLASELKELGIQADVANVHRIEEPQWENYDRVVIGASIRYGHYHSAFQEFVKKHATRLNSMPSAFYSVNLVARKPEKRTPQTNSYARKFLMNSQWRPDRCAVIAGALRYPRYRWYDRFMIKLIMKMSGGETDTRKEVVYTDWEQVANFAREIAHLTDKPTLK
5. MIEMTPDSSVYKALLESTKAIPWKINWQTMAFEYIGPQIEALLGWPQGSWKSVEDWATRMHPEDQEWVVNFCVKQSECGVDHEADYRALHRDGHYVWIRDVVHVVRDDSGEVEALIGFMFDISERKKTLEHHHHHH
6. MASDGVVVEIGKVTGSVGTTVEIPVYFRGVPSKGIANCDFVFRYDPNVLEIIGIDPGDIIVDPNPTKSFDTAIYPDRKIIVFLFAEDSGTGAYAITKDGVFAKIRATVKSSAPGYITFDEVGGFADNDLVEQKVSFIDGGVNVGNATPTKGATPTNTATPTK
7. MGHHHHHHSHMARLILERFLQEHEETPPSKSIINSMLRDPSQIPDGVLANQVYQCIVNDCCYGPLVDCIKHAIGHEHEVLLRDLLLEKNLSFLDEDQLRAKGYDKTPDFILQVPVAVEGHIIHWIESKASFGDECSHHAYLHDQFWSYWNRFGPGLVIYWYGFIQELDCNRERGILLKACFPTNIVTLCHSIA

1. soluble
2. soluble
3. not soluble
4. not soluble
5. soluble
6. soluble
7. not soluble
